pIC50 for assorted compounds
- ASSAY_SYSTEM: human PCSK9 / human LDLR EGFa domain interaction (Homo sapiens, UniProt Q8NBP7)
- Sequence (Q8NBP7 153-692): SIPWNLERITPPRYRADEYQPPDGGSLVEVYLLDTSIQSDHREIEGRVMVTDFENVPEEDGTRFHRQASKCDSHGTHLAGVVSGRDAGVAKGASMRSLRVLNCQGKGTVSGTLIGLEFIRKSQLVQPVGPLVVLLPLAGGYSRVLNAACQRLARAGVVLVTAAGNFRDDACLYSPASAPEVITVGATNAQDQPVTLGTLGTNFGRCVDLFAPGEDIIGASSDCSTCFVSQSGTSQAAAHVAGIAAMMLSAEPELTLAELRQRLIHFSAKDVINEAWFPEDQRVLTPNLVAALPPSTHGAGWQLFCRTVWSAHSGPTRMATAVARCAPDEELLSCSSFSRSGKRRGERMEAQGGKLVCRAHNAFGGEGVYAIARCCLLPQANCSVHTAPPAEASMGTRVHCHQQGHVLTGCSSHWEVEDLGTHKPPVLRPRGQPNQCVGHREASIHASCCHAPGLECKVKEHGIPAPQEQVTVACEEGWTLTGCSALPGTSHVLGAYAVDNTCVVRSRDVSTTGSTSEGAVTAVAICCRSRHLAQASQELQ
- Sequence (Q8NBP7 31-152 partner limits assumed): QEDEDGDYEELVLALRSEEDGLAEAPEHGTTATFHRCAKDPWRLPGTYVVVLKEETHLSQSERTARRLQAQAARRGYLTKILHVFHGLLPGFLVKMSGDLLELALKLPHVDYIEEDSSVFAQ
- MEASUREMENT_PROTOCOL: TR-FRET assay of inhibition of the PCSK9-LDLR protein-protein interaction
- CONDITION_CONTEXT: 20 nM avitag-biotinylated human PCSK9, 20 nM his-tagged human LDLR EGFa domain, 2 hours, room temperature
pIC50: −log10 of the molar value. Numbered stars: 1 amine (or outer) side, 2 acyl side, 3 side chain; on linkers, the order of the positions; unused ones are H or OH. Bridge positions count the residues as written; N and C are the ends. Square brackets hold non-standard residues; d marks the D form. Peptide text beside a SMILES is read from it. Trp(7-aza) = N[C@@H](Cc1c[nH]c2ncccc12)C(=O)O; mXylylene = c1cc(C[*:1])cc(C[*:2])c1; Val(3-OH) = CC(C)(O)[C@H](N)C(=O)O; Tle = CC(C)(C)[C@H](N)C(=O)O; αMeV = CC(C)[C@](C)(N)C(=O)O; Thp = NC1(C(=O)O)CCOCC1; Ac4c = NC1(C(=O)O)CCC1

>  <COMPOUND>
CC(=O)N[C@H]1CSCc2cccc(c2)CSC[C@H](C(N)=O)NC(=O)[C@H]([C@@H](C)O)NC(=O)[C@](C)(C(C)C)NC(=O)[C@H](Cc2ccc(O)cc2)NC(=O)[C@H](C)NC(=O)C2(CCC2)NC(=O)[C@H](Cc2c[nH]c3ncccc23)NC(=O)[C@H](C(C)(C)O)NC(=O)[C@@H]2CCCN2C(=O)[C@H](Cc2ccc(O)cc2)NC(=O)[C@H](C(C)(C)C)NC1=O [Compound 194] (Ac-C[Tle]YP[Val(3-OH)][Trp(7-aza)][Ac4c]AY[αMeV]T[dC]-NH2; linker 1-12 via mXylylene)

>  <pIC50>
7.00 to 9.00

$$$$
>  <COMPOUND>
CC(=O)N[C@H]1CSCc2cccc(c2)CSC[C@H](C(N)=O)NC(=O)[C@H]([C@@H](C)O)NC(=O)[C@](C)(C(C)C)NC(=O)[C@H](Cc2ccc(O)cc2)NC(=O)[C@H](C)NC(=O)C2(CCOCC2)NC(=O)[C@H](Cc2c[nH]c3ncccc23)NC(=O)[C@H]([C@@H](C)O)NC(=O)[C@@H]2CCCN2C(=O)[C@H](Cc2ccc(O)cc2)NC(=O)[C@H](C(C)(C)C)NC1=O [Compound 187] (Ac-C[Tle]YPT[Trp(7-aza)][Thp]AY[αMeV]T[dC]-NH2; linker 1-12 via mXylylene)

>  <pIC50>
7.00 to 9.00

$$$$
